Assay: IUF_NPC2b_neuronal_migration_120hr: Leibniz Research Institute for Environmental Medicine (IUF) 120-hour Neural Progenitor Cell Migration Assay for Neuron Migration (NPC2b) (AID 2284300)
Calls of active or inactive are those of the source. The calls were made as follows: active = hit-call score of the fitted dose curve at least 0.9, where 1 is the maximum; inactive = score below 0.9.
REPORTED_METRIC: AC50

[
  {
    "CHEM_SMILES": "CC(C)(c1ccc(O)cc1)c1ccc(O)cc1",
    "MEASUREMENT": "inactive"
  },
  {
    "CHEM_SMILES": "CSC(=O)c1cccc2nnsc12",
    "MEASUREMENT": "inactive"
  },
  {
    "CHEM_SMILES": "S=C(S)NCCNC(=S)S.[Mn+2].[S-]C([S-])=NCCN=C([S-])[S-].[Zn+2]",
    "MEASUREMENT": "inactive"
  },
  {
    "CHEM_SMILES": "Cc1nn(C)c(Oc2ccccc2)c1C=NOCc1ccc(C(=O)OC(C)(C)C)cc1",
    "MEASUREMENT": "6.63 µM (active)"
  },
  {
    "CHEM_SMILES": "CCN(CC)C(=O)c1cccc(C)c1",
    "MEASUREMENT": "inactive"
  }
]

###

Test: ATG_GRE_CIS: Attagene CIS-FACTORIAL HepG2 Assay for human Glucocorticoid Response Elements (GRE) (AID 2282947)
Settings: HepG2 GRE cis-reporter, Attagene multiplex mRNA; actives raise or lower the signal
The source made the active and inactive calls. How the source made its calls: active means hit-call score of the fitted dose curve at least 0.9, where 1 is the maximum; inactive means score below 0.9.
Outcome codes: t for active, f for inactive

[
  {
    "COMPOUND": "S=C(S)NCCNC(=S)S.[Mn+2].[S-]C([S-])=NCCN=C([S-])[S-].[Zn+2]",
    "QUALITATIVE_LABEL": "f"
  },
  {
    "COMPOUND": "CCC(O)=C1C(=O)CC(C(=O)O)CC1=O (configuration not stated)",
    "QUALITATIVE_LABEL": "f"
  },
  {
    "COMPOUND": "COC(=O)c1ccccc1S(=O)(=O)NC(=O)Nc1nc(OC(F)F)cc(OC(F)F)n1",
    "QUALITATIVE_LABEL": "f"
  },
  {
    "COMPOUND": "CCSC(=O)N(CC(C)C)CC(C)C",
    "QUALITATIVE_LABEL": "f"
  },
  {
    "COMPOUND": "C=CCOC(Cn1ccnc1)c1ccc(Cl)cc1Cl (configuration not stated)",
    "QUALITATIVE_LABEL": "f"
  },
  {
    "COMPOUND": "N#CSCSc1nc2ccccc2s1",
    "QUALITATIVE_LABEL": "f"
  },
  {
    "COMPOUND": "CC(C)(C)[C@@H](O)[C@@H](Cc1ccc(Cl)cc1)n1cncn1",
    "QUALITATIVE_LABEL": "t"
  },
  {
    "COMPOUND": "CCCCC(CC)COC(=O)c1ccccc1C(=O)O (configuration not stated)",
    "QUALITATIVE_LABEL": "f"
  },
  {
    "COMPOUND": "COC(=O)c1cccc(C)c1S(=O)(=O)NC(=O)Nc1nc(OCC(F)(F)F)nc(N(C)C)n1",
    "QUALITATIVE_LABEL": "f"
  },
  {
    "COMPOUND": "Cc1nn(C)c(Oc2ccccc2)c1C=NOCc1ccc(C(=O)OC(C)(C)C)cc1",
    "QUALITATIVE_LABEL": "f"
  },
  {
    "COMPOUND": "CCCOC(=O)c1ccc(C(=O)OCCC)nc1",
    "QUALITATIVE_LABEL": "f"
  },
  {
    "COMPOUND": "COC(=O)c1ccc(I)cc1S(=O)(=O)NC(=O)Nc1nc(C)nc(OC)n1",
    "QUALITATIVE_LABEL": "f"
  },
  {
    "COMPOUND": "CCCN(CCC)C(=O)SCC",
    "QUALITATIVE_LABEL": "f"
  },
  {
    "COMPOUND": "CC(=O)S[C@@H]1CC2=CC(=O)CC[C@]2(C)[C@H]2CC[C@@]3(C)[C@@H](CC[C@@]34CCC(=O)O4)[C@H]12",
    "QUALITATIVE_LABEL": "f"
  },
  {
    "COMPOUND": "CCCCOC(=O)C(C)Oc1ccc(Oc2ccc(C(F)(F)F)cn2)cc1 (configuration not stated)",
    "QUALITATIVE_LABEL": "f"
  },
  {
    "COMPOUND": "CCCCCOC(=O)COc1cc(N2C(=O)C3=C(CCCC3)C2=O)c(F)cc1Cl",
    "QUALITATIVE_LABEL": "f"
  },
  {
    "COMPOUND": "COC(=O)c1ccccc1C(=O)O",
    "QUALITATIVE_LABEL": "f"
  }
]

###

Read-out: CYP3A5 (gene 1577)
Experiment: LTEA_HepaRG_CYP3A5: Life Technologies and Expression Analysis (LTEA) Assay for CYP3A5 using HepaRG (AID 2283493)
Settings: mRNA level, 48 h; actives raise or lower the signal
Calls of active or inactive are those of the source. Rule for the calls: active = hit-call score of the fitted dose curve at least 0.9, where 1 is the maximum; inactive = score below 0.9.
Outcome codes: active, inactive

[
  {
    "COMPOUND": "c1ccc(Nc2ccccc2)cc1",
    "QUALITATIVE_LABEL": "inactive"
  },
  {
    "COMPOUND": "CCOC(=O)C(C)Oc1ccc(Oc2cnc3cc(Cl)ccc3n2)cc1 (stereo not drawn)",
    "QUALITATIVE_LABEL": "active"
  },
  {
    "COMPOUND": "CCN(Cc1c(F)cccc1Cl)c1c([N+](=O)[O-])cc(C(F)(F)F)cc1[N+](=O)[O-]",
    "QUALITATIVE_LABEL": "inactive"
  },
  {
    "COMPOUND": "CCOC(=O)COc1cc(-n2ncc(C(F)(F)F)c(C)c2=O)c(F)cc1Cl",
    "QUALITATIVE_LABEL": "inactive"
  },
  {
    "COMPOUND": "CCCCCCC(C)OC(=O)COc1nc(F)c(Cl)c(N)c1Cl (stereo not drawn)",
    "QUALITATIVE_LABEL": "inactive"
  },
  {
    "COMPOUND": "O=C(c1ccccc1)C1CCCCC1",
    "QUALITATIVE_LABEL": "inactive"
  },
  {
    "COMPOUND": "CC(C)(c1ccc(O)cc1)c1ccc(O)cc1",
    "QUALITATIVE_LABEL": "inactive"
  },
  {
    "COMPOUND": "CC(=O)[C@H]1CC[C@H]2[C@@H]3CCC4=CC(=O)CC[C@]4(C)[C@H]3CC[C@]12C",
    "QUALITATIVE_LABEL": "active"
  },
  {
    "COMPOUND": "CCC(C)OC(=O)N1CCCCC1CCO (stereo not drawn)",
    "QUALITATIVE_LABEL": "inactive"
  },
  {
    "COMPOUND": "OB(O)O",
    "QUALITATIVE_LABEL": "inactive"
  },
  {
    "COMPOUND": "C[C@]12CC[C@@H]3c4ccc(O)cc4C[C@@H](CCCCCCCCCS(=O)CCCC(F)(F)C(F)(F)F)[C@H]3[C@@H]1CC[C@@H]2O (stereo partly drawn)",
    "QUALITATIVE_LABEL": "active"
  },
  {
    "COMPOUND": "COC(=O)c1ccc(I)cc1S(=O)(=O)NC(=O)Nc1nc(C)nc(OC)n1",
    "QUALITATIVE_LABEL": "inactive"
  },
  {
    "COMPOUND": "CCCCCOC(=O)COc1cc(N2C(=O)C3=C(CCCC3)C2=O)c(F)cc1Cl",
    "QUALITATIVE_LABEL": "inactive"
  },
  {
    "COMPOUND": "CCCOC(=O)c1ccc(C(=O)OCCC)nc1",
    "QUALITATIVE_LABEL": "inactive"
  },
  {
    "COMPOUND": "S=C([S-])NCCNC(=S)[S-].[Mn+2]",
    "QUALITATIVE_LABEL": "active"
  },
  {
    "COMPOUND": "CCCN(CCC)c1c([N+](=O)[O-])cc(C(F)(F)F)c(N)c1[N+](=O)[O-]",
    "QUALITATIVE_LABEL": "inactive"
  },
  {
    "COMPOUND": "C#CCOC(=O)[C@@H](C)Oc1ccc(Oc2ncc(Cl)cc2F)cc1",
    "QUALITATIVE_LABEL": "inactive"
  },
  {
    "COMPOUND": "N#CSCSc1nc2ccccc2s1",
    "QUALITATIVE_LABEL": "inactive"
  },
  {
    "COMPOUND": "c1ccc2[nH]c(-c3cscn3)nc2c1",
    "QUALITATIVE_LABEL": "inactive"
  },
  {
    "COMPOUND": "CCCN(CCC)C(=O)SCC",
    "QUALITATIVE_LABEL": "inactive"
  },
  {
    "COMPOUND": "CCOC(=O)C(C)Oc1ccc(Oc2nc3ccc(Cl)cc3o2)cc1 (stereo not drawn)",
    "QUALITATIVE_LABEL": "inactive"
  },
  {
    "COMPOUND": "CCSC(=O)N(CC(C)C)CC(C)C",
    "QUALITATIVE_LABEL": "inactive"
  },
  {
    "COMPOUND": "CCCCC(CC)CN1C(=O)C2C3C=CC(C3)C2C1=O (stereo not drawn)",
    "QUALITATIVE_LABEL": "inactive"
  },
  {
    "COMPOUND": "CCCCOC(=O)[C@@H](C)Oc1ccc(Oc2ccc(C(F)(F)F)cn2)cc1",
    "QUALITATIVE_LABEL": "inactive"
  },
  {
    "COMPOUND": "CCNc1nc(N)nc(Cl)n1",
    "QUALITATIVE_LABEL": "inactive"
  },
  {
    "COMPOUND": "CCCCC(CC)COC(=O)c1ccccc1C(=O)O (stereo not drawn)",
    "QUALITATIVE_LABEL": "inactive"
  },
  {
    "COMPOUND": "O=C(O)c1ccccc1",
    "QUALITATIVE_LABEL": "inactive"
  },
  {
    "COMPOUND": "C=CCOC(Cn1ccnc1)c1ccc(Cl)cc1Cl (stereo not drawn)",
    "QUALITATIVE_LABEL": "active"
  }
]
